- assay_explanation: collision cross section in nitrogen (drift tube, single-field); higher = larger gas-phase ion size;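 also: chemical standards at 10 µM analysed by drift tube IMS-QTOF MS in about 3.95 torr nitrogen, mean of duplicate injections differing ≤1%, mass error below 10 ppm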
- applied_conditions: ion type: [M+H]; ion source: APCI; ion mode: Positive
endpoint_name: collision cross section in nitrogen (Å²)

CCn1nc(C)c2c1C(=O)NCC(c1ccc(O)cc1)=N2; 170.8
CCOP(=S)(Oc1cnc(C(C)(C)C)nc1)OC(C)C (centres undefined); 177.4
CN(C)C(=O)Nc1ccc(Cl)c(Cl)c1; 151.3
CC(=O)c1cccnc1; 123.6

---

- assay_explanation: collision cross section in nitrogen (drift tube, single-field); higher = larger gas-phase ion size
- applied_conditions: ion type: [M+H]; ion source: ESI; ion mode: Positive
Counter-ions that a name gives are not always drawn.
endpoint_name: collision cross section in nitrogen (Å²)

CCOC(=O)c1ccc(N(C)C)cc1 [Parbenate]; 149.6
C[C@@H]1CN(c2c(F)c(N)c3c(=O)c(C(=O)O)cn(C4CC4)c3c2F)C[C@H](C)N1 [Sparfloxacin]; 190.2
O=C1Nc2ccc(Cl)cc2C(c2ccccc2)=NC1O (stereo not given) [Oxazepam]; 163.7
COc1cc(OC)nc(Sc2cccc(Cl)c2C(=O)O)n1 [Pyrithiobac sodium]; 166.6
O=C(N[C@@H](Cc1ccccc1)[C@@H](O)C(=O)N1C[C@@H](O)[C@@H](O)C1)c1cc2cc(Cl)ccc2[nH]1 [Ingliforib]; 216
CCC(Cc1ccccc1)(C(=O)c1ccc(N2CCOCC2)cc1)N(C)C (stereo not given); 195.7
Nc1ccc(N=Nc2ccccc2)c(N)c1 [C.I. Basic Orange 2]; 151.2
NC(=O)Cn1c(=O)cc(CCN2CCN(c3nccc4sccc34)CC2)c2ccc(F)cc21 [Trelanserin]; 202.8
Cc1cc(C)nc(N)n1 [2-Amino-4,6-dimethylpyrimidine]; 123
CN(C)CCN(Cc1cccs1)c1ccccn1 [Methapyrilene fumarate]; 157.8

---

- assay_explanation: collision cross section in nitrogen (drift tube, single-field); higher = larger gas-phase ion size
- applied_conditions: ion type: [M-H]; ion source: ESI; ion mode: Negative
This section presents compounds with their documented collision cross section in nitrogen values.
Report the value in Å² with no unit label.

Here's what some known entries look like.
CCC(C)c1cccc(C(C)CC)c1O (stereo not drawn); 151.4
Cc1ccc(NC(=O)N(C)C)cc1NC(=O)N(C)C; 165.1

Now for another entry.
Give a short answer stating reported collision cross section in nitrogen for O=[N+]([O-])c1c2ccccc2cc2ccccc12 .
145.1

---

- assay_explanation: collision cross section in nitrogen (drift tube, single-field); higher = larger gas-phase ion size
- applied_conditions: ion type: [M-H]; ion source: ESI; ion mode: Negative
endpoint_name: collision cross section in nitrogen (Å²)

[a] O=S(=O)(O)c1ccc2cc(O)ccc2c1 [Sodium 6-hydroxynaphthalene-2-sulfonate]
[b] CCN(CC)c1ccc2cc(-c3nc4cc(S(N)(=O)=O)ccc4o3)c(=O)oc2c1
Which of the two gives a bigger number for collision cross section in nitrogen: a or b ? Response format: the label of the selected entry.
b
(b: 218.6 Å², a: 148.7 Å²)

---

- assay_explanation: collision cross section in nitrogen (drift tube, single-field); higher = larger gas-phase ion size
- applied_conditions: ion type: [M+H]; ion source: APCI; ion mode: Positive
endpoint_name: collision cross section in nitrogen (Å²)

// worked examples, collision cross section in nitrogen included
COc1cc(/C=C/C(=O)CC(=O)/C=C/c2ccc(O)c(OC)c2)ccc1O; 202.8
Nc1nc(N)nc(NC2CC2)n1; 135.6
COc1cc(-c2ccc(N)c(OC)c2)ccc1N; 170.4
Cc1ccc(OP(=O)(Oc2ccc(C)cc2C)Oc2ccc(C)cc2C)c(C)c1 [Trixylyl phosphate]; 204.2
O=C(Nc1ccccc1)c1ccccc1O [Salicylanilide]; 144.8

[a] C[C@]12C=CC(=O)C=C1CC[C@@H]1[C@@H]2C(=O)C[C@@]2(C)[C@H]1CC[C@]2(O)C(=O)CO
[b] c1ccc2[nH]cnc2c1
For the pair a and b , which member has the lower collision cross section in nitrogen number? Answer = label.
b
